For each record, write down the corresponding fold induction at 100 µM.
Test system: gdg6-A8 riboswitch
Assay: Luciferase reporter assay, gdg6-A8 riboswitch, transfected HEK 293 cells
Type: cell-based
Settings: Homo sapiens, HEK293; gdg6-A8 riboswitch; Prestwick library compounds at 100 μM; HEK 293
Method: Riboswitches were constructed as described in PCT/US2016/016234 (in particular Examples 3 to 6), incorporated herein by reference. […] 24 hours after media change, plates were removed from the incubator, and equilibrated to RT for several minutes on a lab bench, then aspirated. […] Following a 5 min incubation at RT, luminescence was measured using a Tecan machine with 500 mSec read time. […]
Structures can show the parent of a compound that is named as a salt.
Give bare numbers.

Worked examples, 4 molecules total:
In [3]: df
Out[3]:
                                   molecule         reported_endpoint  meas_value
0  CC(CN1c2ccccc2Sc2ccccc21)N(C)C (centres unmarked) [Promethazine hydrochloride]  fold induction at 100 µM         4.8
1  CN/C(=N/CCSCc1nc[nH]c1C)NC#N [Cimetidine]  fold induction at 100 µM           3
2  OCCN1CCN(CCCN2c3ccccc3C=Cc3ccccc32)CC1 [Opipramol dihydrochloride]  fold induction at 100 µM         3.1
3  CN(C)CCCN1c2ccccc2Sc2ccccc21 [Promazine hydrochloride]  fold induction at 100 µM        12.6

// input: 6 molecules below; output: fold induction at 100 µM for each
1. C/C=C(/C(=C/C)c1ccc(O)cc1)c1ccc(O)cc1 [Dienestrol]
2. S=c1nc[nH]c2nc[nH]c12 [Mercaptopurine]
3. Nc1nc2nn[nH]c2c(=O)[nH]1 [8-Azaguanine]
4. O=C(Nc1ccccc1)OCC(CN1CCCCC1)OC(=O)Nc1ccccc1 (centres unmarked) [Diperodon hydrochloride]
5. O=C(CCCCCCC(=O)Nc1ccccc1)NO [Vorinostat]
6. CN1CCC(=C2c3ccccc3Sc3ccccc32)CC1 [Pimethixene maleate]

Output:
[4.3, 17.2, 306, 3, 6.4, 9.2]

Task: Request body: readout fold induction at 100 µM, system gdg6-A8 riboswitch, query Cn1cnc([N+](=O)[O-])c1Sc1ncnc2nc[nH]c12 [Azathioprine] . Return the value.
Output: 19.9

====

tested on: ydhl-A6 riboswitch; assay: Luciferase reporter assay, ydhl-A6 riboswitch, transfected HEK 293 cells; assay type: cell-based; conditions: Homo sapiens, HEK293, read-out: Fold Induction of luciferase activity
Where a name gives a salt, the structure may show the parent alone.
REPORTED ENDPOINT: fold induction at 100 µM
Answers are plain numbers.

Consider the reported fold induction at 100 µM for these compounds:
>>> df
                                   compound  meas_value
0    COC1=C(OC)C(=O)C(CCCCCCCCCCO)=C(C)C1=O         3.5
1  CC[C@]12CCCN3CCc4c(n(c5ccccc45)[C@@](O)(C(=O)OC)C1)[C@@H]32         3.3
2  CCOC(=O)Nc1ccc2c(c1)N(C(=O)CCN1CCOCC1)c1ccccc1S2 [Moricizine hydrochloride]        10.3

Attention now turns to another entry.
Task: Look up fold induction at 100 µM for this compound: CCN1CCCC(OC(=O)C(c2ccccc2)c2ccccc2)C1 (stereo not shown) [Piperidolate hydrochloride]
Output: 3.4
